All figures here come from patent US20220047564A1.

# assay-comment: Pharmacokinetics after a single oral administration in male dogs
# Set-up: species or system dog
# details: in vivo; male dog, single oral, nominal dose 1 mg/kg, mean ± SD (n = 3)
measured-attribute: Cmax (ng/mL)
Please reply with the bare figure in ng/mL and do not write the unit itself.

Query string: Please look up its Cmax: CC1(C)C[C@@H]2CCCNc3cccc(n3)S(=O)(=O)NC(=O)c3ccc(-n4ccc(OCCC5C6(CC6)C56CC6)n4)nc3N1C2 [Compound I]
Result string: 2440

###

# assay-comment: Pharmacokinetics after a single oral administration in male monkeys
# Design: species or system monkey
# details: male, monkey, in vivo, po, 1 mg/kg, male monkey, single oral, nominal dose 1 mg/kg, mean ± SD (n = 3); read-out: tmax
measured-attribute: Tmax (h)
Please reply with the bare figure in h and do not write the unit itself.

Query string: Please look up its Tmax: CC1(C)C[C@@H]2CCCNc3cccc(n3)S(=O)(=O)NC(=O)c3ccc(-n4ccc(OCCC5C6(CC6)C56CC6)n4)nc3N1C2 [Compound I]
Result string: 3.33

###

# assay-comment: Pharmacokinetics after a single oral administration in male rats
# Parameters: species or system rat
# details: in vivo; male rat, single oral, nominal dose 3 mg/kg, mean ± SD (n = 3)
measured-attribute: half-life (h)
Please reply with the bare figure in h and do not write the unit itself.

Query string: Please look up its half-life: CC1(C)C[C@@H]2CCCNc3cccc(n3)S(=O)(=O)NC(=O)c3ccc(-n4ccc(OCCC5C6(CC6)C56CC6)n4)nc3N1C2
Result string: 22.6

###

# assay-comment: Pharmacokinetics after a single oral administration in male dogs
# Set-up: species or system dog
# details: dog, in vivo, 1 mg/kg; male dogs, single oral administration
measured-attribute: Tmax (h)
Please reply with the bare figure in h and do not write the unit itself.

Query string: Please look up its Tmax: CC1(C)C[C@@H]2CCCNc3cccc(n3)S(=O)(=O)NC(=O)c3ccc(-n4ccc(OCCC5C6(CC6)C56CC6)n4)nc3N1C2 [Compound I]
Result string: 4

###

# assay-comment: Pharmacokinetics after a single oral administration in male rats
# Design: species or system rat
# details: male, rat, in vivo, po, 3 mg/kg, male rat, single oral, nominal dose 3 mg/kg, mean ± SD (n = 3); read-out: tmax
# Protocol: Following a single oral administration of Compound I in male animals, Compound I mean tmax values were 9 hours in rats, 4 hours in dogs, and 3 hours in monkeys. Compound I Pharmacokinetic Parameters Following a Single Oral Administration of Compound I in Male Rats, Dogs, and Monkeys
measured-attribute: Tmax (h)
Please reply with the bare figure in h and do not write the unit itself.

Query string: Please look up its Tmax: CC1(C)C[C@@H]2CCCNc3cccc(n3)S(=O)(=O)NC(=O)c3ccc(-n4ccc(OCCC5C6(CC6)C56CC6)n4)nc3N1C2
Result string: 9.33
